Biological target: recombinant mTOR (Homo sapiens (Human), UniProt P42345)
Sequence (P42345 1360-2549): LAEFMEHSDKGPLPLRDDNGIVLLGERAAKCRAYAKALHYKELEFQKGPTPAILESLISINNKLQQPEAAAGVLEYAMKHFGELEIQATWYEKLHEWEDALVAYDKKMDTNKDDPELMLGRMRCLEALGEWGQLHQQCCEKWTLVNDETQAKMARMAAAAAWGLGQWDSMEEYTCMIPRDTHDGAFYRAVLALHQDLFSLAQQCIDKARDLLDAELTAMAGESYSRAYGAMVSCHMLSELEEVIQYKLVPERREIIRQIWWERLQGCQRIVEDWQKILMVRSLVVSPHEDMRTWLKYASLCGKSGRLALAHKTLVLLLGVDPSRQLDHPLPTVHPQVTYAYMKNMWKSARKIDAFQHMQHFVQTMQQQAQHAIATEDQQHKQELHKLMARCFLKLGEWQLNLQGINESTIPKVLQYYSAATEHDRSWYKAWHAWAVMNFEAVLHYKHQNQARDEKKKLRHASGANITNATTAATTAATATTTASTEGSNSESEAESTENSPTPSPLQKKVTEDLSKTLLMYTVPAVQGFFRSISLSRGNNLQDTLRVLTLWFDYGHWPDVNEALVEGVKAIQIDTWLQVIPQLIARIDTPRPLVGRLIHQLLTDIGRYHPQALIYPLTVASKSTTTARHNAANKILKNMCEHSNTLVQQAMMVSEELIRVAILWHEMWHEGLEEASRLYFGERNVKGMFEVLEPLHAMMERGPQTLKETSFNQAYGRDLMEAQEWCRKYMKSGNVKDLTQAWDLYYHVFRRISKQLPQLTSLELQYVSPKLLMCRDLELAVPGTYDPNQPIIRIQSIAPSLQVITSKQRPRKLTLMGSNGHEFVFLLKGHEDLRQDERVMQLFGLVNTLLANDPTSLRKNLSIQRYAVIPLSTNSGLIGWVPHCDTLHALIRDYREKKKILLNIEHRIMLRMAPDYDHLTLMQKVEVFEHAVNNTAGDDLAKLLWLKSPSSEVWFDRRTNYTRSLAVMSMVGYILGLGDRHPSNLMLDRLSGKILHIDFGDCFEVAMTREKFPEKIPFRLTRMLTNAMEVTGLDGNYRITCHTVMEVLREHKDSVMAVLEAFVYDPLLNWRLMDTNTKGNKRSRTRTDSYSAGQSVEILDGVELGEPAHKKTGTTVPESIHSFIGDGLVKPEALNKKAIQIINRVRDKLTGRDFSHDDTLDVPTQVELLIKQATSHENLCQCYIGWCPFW
Assay: mTOR kinase assay (33P incorporation into 4EBP1)
Format: biochemical
Conditions: compound at 10 μM, 10 μM ATP
Exercise: for every item that follows, state its recorded inhibition at 10 µM.
Respond numerically; units are % and should not be typed.

Prompt: I'd like to know its inhibition at 10 µM. The compound in question is CSc1cnc(-c2ccc(Nc3nc4ccccc4[nH]3)cc2)nc1N1CCOCC1 [MTR-0289]
Completion: 91

Prompt: I'd like to know its inhibition at 10 µM. The compound in question is COc1cnc(-c2ccc(NC(=O)Nc3ccc(N4CCN(C)CC4)cn3)cc2)nc1N1CCOCC1 [MTR-0334]
Completion: 93

Prompt: I'd like to know its inhibition at 10 µM. The compound in question is CSc1c(Cl)nc(-c2ccc(NC(=O)Nc3ccc(NC(C)=O)nc3)cc2)nc1N1CCOCC1 [MTR-0415]
Completion: 81

Prompt: I'd like to know its inhibition at 10 µM. The compound in question is CSc1c(Cl)nc(-c2ccc(NC(N)=O)c(F)c2)nc1N1CCOCC1 [MTR-0356]
Completion: 82

Prompt: I'd like to know its inhibition at 10 µM. The compound in question is CSc1c(Cl)nc(-c2ccc(NC(=O)Nc3ccc(Cl)nc3)cc2)nc1N1CCOCC1 [MTR-0077]
Completion: 87

Prompt: I'd like to know its inhibition at 10 µM. The compound in question is CCOC(=O)c1ccc(NC(=O)Nc2ccc(-c3nc(C(=O)OCC)c(OCC)c(N4CCOCC4)n3)cc2)cc1 [MTR-0362]
Completion: 84

Prompt: I'd like to know its inhibition at 10 µM. The compound in question is CCOc1c(C(=O)O)nc(-c2ccc(NC(=O)Nc3cccnc3)cc2)nc1N1CCOCC1 [MTR-0245]
Completion: 94

Prompt: I'd like to know its inhibition at 10 µM. The compound in question is COc1cnc(-c2ccc(Nc3nc4ccccc4[nH]3)cc2)nc1N1CCOCC1 [MTR-0310]
Completion: 86

Prompt: I'd like to know its inhibition at 10 µM. The compound in question is COc1cnc(-c2ccc(NC(N)=O)cc2)nc1N1CCOCC1 [MTR-0336]
Completion: 89

Prompt: I'd like to know its inhibition at 10 µM. The compound in question is COc1c(C(=O)O)nc(-c2ccc(NC(=O)Nc3ccccc3)cc2)nc1N1CCOCC1 [MTR-0183]
Completion: 95

Prompt: I'd like to know its inhibition at 10 µM. The compound in question is CSc1c(Cl)nc(-c2ccc(NC(=O)Nc3ccc(S(=O)(=O)N4CCOCC4)cc3)cc2)nc1N1CCOCC1 [MTR-0435]
Completion: 90

Prompt: I'd like to know its inhibition at 10 µM. The compound in question is CS(=O)(=O)c1cnc(-c2ccc(NC(=O)Nc3ccc(N4CCOCC4=O)cc3)cc2)nc1N1CCOCC1 [MTR-0381]
Completion: 92

Prompt: I'd like to know its inhibition at 10 µM. The compound in question is CCOc1c(Cl)nc(-c2ccc(NC(=O)Nc3ccc(N4CCOCC4=O)cc3)cc2)nc1N1CCOCC1 [MTR-0494]
Completion: 86

Prompt: I'd like to know its inhibition at 10 µM. The compound in question is CSc1c(Cl)nc(-c2ccc(NC(=O)Nc3cccc(F)c3)cc2)nc1N1CCOCC1 [MTR-0137]
Completion: 84

Prompt: I'd like to know its inhibition at 10 µM. The compound in question is CSc1c(Cl)nc(-c2ccc(Nc3nc4ccccc4[nH]3)cc2)nc1N1CCOCC1 [MTR-0305]
Completion: 82

Prompt: I'd like to know its inhibition at 10 µM. The compound in question is CCOc1c(-c2cccnc2)nc(-c2ccc(NC(=O)Nc3cccnc3)cc2)nc1N1CCOCC1 [MTR-0491]
Completion: 100
